protocol-details: AUC (0 to 24 hrs) in 3-24 months old infants/toddlers at 50 mg/m'2, iv dosed once daily measured on day 1 post dose
Assay type: ADME, organism-based
Design: time < 24 hr, route intravenous
measurement-conditions: human, plasma
observed-property: AUC(0-t) at 24 h

>>> recorded_value("CC[C@H](C)C[C@H](C)CCCCCCCCC(=O)N[C@H]1C[C@@H](O)[C@@H](NCCN)NC(=O)[C@@H]2[C@@H](O)CCN2C(=O)[C@H]([C@H](O)CCN)NC(=O)[C@H]([C@H](O)[C@@H](O)c2ccc(O)cc2)NC(=O)[C@@H]2C[C@@H](O)CN2C(=O)[C@H]([C@@H](C)O)NC1=O [CASPOFUNGIN]")
"120 µg·h/mL"
